Tested on: Spontaneously Hypertensive Rats
Assay: Antihypertensive action, tail-cuff systolic pressure in unanaesthetized SHR after i.p. administration
Format: in vivo, Spontaneously Hypertensive Rats (female)
Conditions: 3 mg/kg intraperitoneally, Table 1 (Part 2)
Reported Maximum decrease in systolic pressure values are given for each entry in this list.
Report as a plain number; the unit mmHg is understood.

compound	test.target	Maximum decrease in systolic pressure [mmHg]
CSCCOC(=O)C1=C(C)Nc2c(c(C3CCCC3)nn2C)C1c1ccccc1[N+](=O)[O-] (stereo not shown)	Spontaneously Hypertensive Rats	20
COCCOC(=O)C1=C(C)Nc2c(c(C3CCCC3)nn2C)C1c1ccccc1[N+](=O)[O-] (stereo not shown)	Spontaneously Hypertensive Rats	45
CC1=C(C(=O)OCCc2ccc(Cl)cc2)C(c2cccc([N+](=O)[O-])c2)c2c(C3CCCC3)nn(C)c2N1 (stereo not shown)	Spontaneously Hypertensive Rats	74

[in] Specify measured Maximum decrease in systolic pressure for COCCOC(=O)C1=C(C)Nc2c(c(C3CCCCC3)nn2C)C1c1ccccc1[N+](=O)[O-] (stereo not shown) .
[out] 65
